Origin of values: paper PMC5125615

target_or_test_system: RsTSPO (Cereibacter sphaeroides, UniProt Q9RFC8)
Sequence (Q9RFC8 1-158): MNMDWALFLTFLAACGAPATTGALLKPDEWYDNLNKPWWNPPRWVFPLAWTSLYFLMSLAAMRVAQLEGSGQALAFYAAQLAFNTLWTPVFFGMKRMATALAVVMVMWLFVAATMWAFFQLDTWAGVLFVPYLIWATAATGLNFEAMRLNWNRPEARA
experiment: binding to purified protein
protocol_conditions: affinity value, symbol not given

entry_smiles: C=CC1=C(C)c2cc3[nH]c(cc4nc(cc5[nH]c(cc1n2)c(C)c5CCC(=O)O)C(CCC(=O)O)=C4C)c(C)c3C=C
units: µM
Kd: 0.31
